- Test system: Streptococcus pyogenes (IID 698)
- Protocol notes: In vitro anti-bacterial activity (MIC90), Gram-positive reference strains
- Type: cell-based
- Condition notes: IID698
Measure name: MIC90 (µg/mL)

molecule=C[C@@H]1CN(c2c(F)c(N)c3c(=O)c(C(=O)O)cn(C4CC4)c3c2F)C[C@H](C)N1 reported=0.2
molecule="CC1COc2c(N3CCN(C)CC3)c(F)cc3c(=O)c(C(=O)O)cn1c23 (stereo not shown)" reported=0.39
molecule="NC1CCCCN(c2c(F)cc3c(=O)c(C(=O)O)cn(C4CC4)c3c2Cl)C1 (stereo not shown)" reported=0.1
molecule="CC1CCc2c(N3CCC(O)CC3)c(F)cc3c(=O)c(C(=O)O)cn1c23 (stereo not shown)" reported=0.1

---

- Test system: Propionibacterium acnes (ATCC 11828)
Measure name: MIC90

compound="CC1COc2c(N3CCN(C)CC3)c(F)cc3c(=O)c(C(=O)O)cn1c23 (stereo not shown)" reported="1.56 µg/mL"
compound=C[C@@H]1CN(c2c(F)c(N)c3c(=O)c(C(=O)O)cn(C4CC4)c3c2F)C[C@H](C)N1 reported="0.78 µg/mL"
compound="CC1CCc2c(N3CCC(O)CC3)c(F)cc3c(=O)c(C(=O)O)cn1c23 (stereo not shown)" reported="0.78 µg/mL"
compound="NC1CCCCN(c2c(F)cc3c(=O)c(C(=O)O)cn(C4CC4)c3c2Cl)C1 (stereo not shown)" reported="0.39 µg/mL"

---

- Tested on: Staphylococcus epidermidis (ATCC 12228)
- Protocol notes: In vitro anti-bacterial activity (MIC90), Gram-positive reference strains
- Format: cell-based
- Condition notes: ATCC12228
Measure name: MIC90

molecule="CC1CCc2c(N3CCC(O)CC3)c(F)cc3c(=O)c(C(=O)O)cn1c23 (stereo not shown)" measure_name=MIC90 reported="0.1 µg/mL"
molecule="NC1CCCCN(c2c(F)cc3c(=O)c(C(=O)O)cn(C4CC4)c3c2Cl)C1 (stereo not shown)" measure_name=MIC90 reported="0.05 µg/mL"
molecule=C[C@@H]1CN(c2c(F)c(N)c3c(=O)c(C(=O)O)cn(C4CC4)c3c2F)C[C@H](C)N1 measure_name=MIC90 reported="0.2 µg/mL"
molecule="CC1COc2c(N3CCN(C)CC3)c(F)cc3c(=O)c(C(=O)O)cn1c23 (stereo not shown)" measure_name=MIC90 reported="0.78 µg/mL"

---

- Test system: Streptococcus faecalis (ATCC 29212)
- Protocol notes: In vitro anti-bacterial activity (MIC90), Gram-positive reference strains
- Type: cell-based
- Condition notes: Enterococcus faecalis, ATCC29212
- Description: Anti-bacterial activity of the compound having Formula III was tested against several Gram-negative reference bacteria strains and compared to the anti-bacterial activity of three commercially available antibiotics (nadifloxacin, ofloxacin, and sparfloxacin). The results are shown in Table 2 as MIC90 values (minimum concentration of the active compound required to inhibit ninety percent of the growth of a specified pathogen, in μg/ml). […]
Measure name: MIC90 (µg/mL)

compound="CC1COc2c(N3CCN(C)CC3)c(F)cc3c(=O)c(C(=O)O)cn1c23 (stereo not shown)" measure_name=MIC90 units_of_measure=µg/mL reported=1.56
compound="NC1CCCCN(c2c(F)cc3c(=O)c(C(=O)O)cn(C4CC4)c3c2Cl)C1 (stereo not shown)" measure_name=MIC90 units_of_measure=µg/mL reported=0.2
compound="CC1CCc2c(N3CCC(O)CC3)c(F)cc3c(=O)c(C(=O)O)cn1c23 (stereo not shown)" measure_name=MIC90 units_of_measure=µg/mL reported=0.78
compound=C[C@@H]1CN(c2c(F)c(N)c3c(=O)c(C(=O)O)cn(C4CC4)c3c2F)C[C@H](C)N1 measure_name=MIC90 units_of_measure=µg/mL reported=0.39
